Data origin, for the record: ChEMBL document CHEMBL2417377

Listing of entries alongside the reported inhibition.
target: Serine/threonine-protein kinase WNK2 (Homo sapiens); assay: Inhibition of Wnk2 in human PC3 cell lysates at 10 uM using desthiobiotin-tagged ATP probe AX9989 followed by trypsinization by LC/MS analysis; conditions: PC-3

Example entries and their recorded answers appear below.
NC(=O)c1ccc2nc(N[C@H]3CC[C@H](O)CC3)c3nccn3c2c1 : < 35%
O=C(NC1(c2ccc(F)cc2)CC1)c1ccc2nc(N[C@H]3CC[C@H](O)CC3)c3nccn3c2c1 : < 35%

From here, focus on the item given below.
# return recorded inhibition for entry "CCC[C@@H](NC(=O)c1ccc2nc(N[C@H]3CC[C@H](O)CC3)c3nccn3c2c1)c1ccccc1"
< 35%

====

biological target: Serine/threonine-protein kinase Chk2 (Homo sapiens); experiment: Inhibition of CHK2 in human PC3 cell lysates at 10 uM using desthiobiotin-tagged ATP probe AX9989 followed by trypsinization by LC/MS analysis; settings: PC-3
inhibition overview

In the examples that follow, each entry is paired with its recorded inhibition.
NC(=O)c1ccc2nc(N[C@H]3CC[C@H](O)CC3)c3nccn3c2c1 : < 35%
O=C(NC1(c2ccccc2)CC1)c1ccc2nc(N[C@H]3CC[C@H](O)CC3)c3nccn3c2c1 : < 35%

Output measured inhibition for this item: "O=C(NC1(c2ccccc2)CCC1)c1ccc2nc(N[C@H]3CC[C@H](O)CC3)c3nccn3c2c1"
< 35%

Answer with the recorded inhibition of "O=C(NC1(c2ccc(F)cc2)CC1)c1ccc2nc(N[C@H]3CC[C@H](O)CC3)c3nccn3c2c1" only.
< 35%

Report inhibition for "O=C(NC1(Cc2ccc(F)cc2)CC1)c1ccc2nc(N[C@H]3CC[C@H](O)CC3)c3nccn3c2c1"
< 35%

Specify reported inhibition for the compound shown: "C[C@@H](NC(=O)c1ccc2nc(N[C@H]3CC[C@H](O)CC3)c3nccn3c2c1)c1ccccc1"
36.9%

====

Attribute: IC50
target: Microtubule-associated serine/threonine-protein kinase 3 (Homo sapiens); assay: Inhibition of MAST3 in human HuH7 cell lysates
Sequence (O60307 whole entry): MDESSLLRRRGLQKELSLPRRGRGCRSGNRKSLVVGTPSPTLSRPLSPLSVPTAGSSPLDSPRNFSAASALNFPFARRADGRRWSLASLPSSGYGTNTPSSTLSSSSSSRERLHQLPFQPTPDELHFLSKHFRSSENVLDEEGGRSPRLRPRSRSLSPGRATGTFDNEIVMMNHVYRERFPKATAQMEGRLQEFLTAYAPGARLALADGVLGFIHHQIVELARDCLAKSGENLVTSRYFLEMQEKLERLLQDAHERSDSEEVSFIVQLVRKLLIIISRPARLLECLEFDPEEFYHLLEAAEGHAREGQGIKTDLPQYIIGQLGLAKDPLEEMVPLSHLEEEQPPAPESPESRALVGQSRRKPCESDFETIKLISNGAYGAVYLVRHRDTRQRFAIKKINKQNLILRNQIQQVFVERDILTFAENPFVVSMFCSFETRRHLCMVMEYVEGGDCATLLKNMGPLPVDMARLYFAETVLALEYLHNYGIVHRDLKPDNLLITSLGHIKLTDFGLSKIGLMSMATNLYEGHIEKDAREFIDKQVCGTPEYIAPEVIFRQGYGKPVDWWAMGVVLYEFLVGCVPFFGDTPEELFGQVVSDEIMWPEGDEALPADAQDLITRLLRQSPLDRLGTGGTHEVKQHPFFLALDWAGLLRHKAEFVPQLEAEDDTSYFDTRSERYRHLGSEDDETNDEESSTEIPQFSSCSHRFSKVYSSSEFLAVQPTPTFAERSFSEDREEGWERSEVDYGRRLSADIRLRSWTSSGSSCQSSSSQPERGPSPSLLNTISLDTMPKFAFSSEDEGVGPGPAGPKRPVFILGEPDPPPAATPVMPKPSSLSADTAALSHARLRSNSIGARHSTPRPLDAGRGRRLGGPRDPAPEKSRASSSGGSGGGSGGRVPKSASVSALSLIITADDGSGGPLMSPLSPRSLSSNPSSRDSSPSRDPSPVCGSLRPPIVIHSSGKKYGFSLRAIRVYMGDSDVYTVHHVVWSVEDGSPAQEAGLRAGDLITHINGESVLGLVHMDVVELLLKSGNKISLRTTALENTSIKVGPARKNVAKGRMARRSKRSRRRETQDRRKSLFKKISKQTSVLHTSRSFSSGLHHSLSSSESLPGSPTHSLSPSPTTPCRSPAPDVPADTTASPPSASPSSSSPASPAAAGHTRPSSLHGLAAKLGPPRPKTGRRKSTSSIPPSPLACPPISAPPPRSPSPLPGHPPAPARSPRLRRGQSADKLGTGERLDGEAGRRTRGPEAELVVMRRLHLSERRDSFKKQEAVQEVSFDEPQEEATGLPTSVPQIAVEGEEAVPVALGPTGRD

Before answering, review these 5 worked examples.
CC[C@@H](NC(=O)c1ccc2nc(N[C@H]3CC[C@H](O)CC3)c3nccn3c2c1)c1ccccc1 : 1.4 µM
O=C(N[C@H](CO)c1ccccc1)c1ccc2nc(N[C@H]3CC[C@H](O)CC3)c3nccn3c2c1 : 0.29 µM
CCC[C@@H](NC(=O)c1ccc2nc(N[C@H]3CC[C@H](O)CC3)c3nccn3c2c1)c1ccccc1 : 2.4 µM
O=C(NC1(c2ccc(F)cc2)CC1)c1ccc2nc(N[C@H]3CC[C@H](O)CC3)c3nccn3c2c1 : 0.74 µM
O=C(NC1(c2ccccc2)CC1)c1ccc2nc(N[C@H]3CC[C@H](O)CC3)c3nccn3c2c1 : 0.24 µM

State, in one line, measured IC50 of "C[C@@H](NC(=O)c1ccc2nc(N[C@H]3CC[C@H](O)CC3)c3nccn3c2c1)c1ccccc1"
1.01 µM

====

molecular target: Ribosomal protein S6 kinase alpha-3 (Homo sapiens); test: Inhibition of RSK2 domain2 in human PC3 cell lysates at 10 uM using desthiobiotin-tagged ATP probe AX9989 followed by trypsinization by LC/MS analysis; conditions: PC-3
# inhibition listing for each entry below

O=C(NC1(c2ccccc2)CCC1)c1ccc2nc(N[C@H]3CC[C@H](O)CC3)c3nccn3c2c1 : < 35%
CCC[C@@H](NC(=O)c1ccc2nc(N[C@H]3CC[C@H](O)CC3)c3nccn3c2c1)c1ccccc1 : < 35%
O=C(NC1(c2ccccc2)CC1)c1ccc2nc(N[C@H]3CC[C@H](O)CC3)c3nccn3c2c1 : < 35%
O=C(NC1(Cc2ccc(F)cc2)CC1)c1ccc2nc(N[C@H]3CC[C@H](O)CC3)c3nccn3c2c1 : < 35%
CC(C)(NC(=O)c1ccc2nc(N[C@H]3CC[C@H](O)CC3)c3nccn3c2c1)c1ccccc1 : < 35%
C[C@H](NC(=O)c1ccc2nc(N[C@H]3CC[C@H](O)CC3)c3nccn3c2c1)c1ccccc1 : < 35%
O=C(O)c1ccc2nc(N[C@H]3CC[C@H](O)CC3)c3nccn3c2c1 : < 35%
CC[C@@H](NC(=O)c1ccc2nc(N[C@H]3CC[C@H](O)CC3)c3nccn3c2c1)c1ccccc1 : < 35%

Quick one: give measured inhibition for "O=C(N[C@H](CO)c1ccccc1)c1ccc2nc(N[C@H]3CC[C@H](O)CC3)c3nccn3c2c1"
< 35%

Check the records and state inhibition for "O=C(NC1(c2ccc(F)cc2)CC1)c1ccc2nc(N[C@H]3CC[C@H](O)CC3)c3nccn3c2c1"
< 35%

Let me know recorded inhibition for "NC(=O)c1ccc2nc(N[C@H]3CC[C@H](O)CC3)c3nccn3c2c1" , thanks.
< 35%

Supply reported inhibition belonging to this compound: "C[C@@H](NC(=O)c1ccc2nc(N[C@H]3CC[C@H](O)CC3)c3nccn3c2c1)c1ccccc1"
< 35%

====

molecular target: Serine/threonine-protein kinase PRP4 homolog (Homo sapiens) (UniProt Q13523); test: Inhibition of PRP4 in human PC3 cell lysates at 10 uM using desthiobiotin-tagged ATP probe AX9989 followed by trypsinization by LC/MS analysis; conditions: PC-3
Sequence (Q13523 whole entry): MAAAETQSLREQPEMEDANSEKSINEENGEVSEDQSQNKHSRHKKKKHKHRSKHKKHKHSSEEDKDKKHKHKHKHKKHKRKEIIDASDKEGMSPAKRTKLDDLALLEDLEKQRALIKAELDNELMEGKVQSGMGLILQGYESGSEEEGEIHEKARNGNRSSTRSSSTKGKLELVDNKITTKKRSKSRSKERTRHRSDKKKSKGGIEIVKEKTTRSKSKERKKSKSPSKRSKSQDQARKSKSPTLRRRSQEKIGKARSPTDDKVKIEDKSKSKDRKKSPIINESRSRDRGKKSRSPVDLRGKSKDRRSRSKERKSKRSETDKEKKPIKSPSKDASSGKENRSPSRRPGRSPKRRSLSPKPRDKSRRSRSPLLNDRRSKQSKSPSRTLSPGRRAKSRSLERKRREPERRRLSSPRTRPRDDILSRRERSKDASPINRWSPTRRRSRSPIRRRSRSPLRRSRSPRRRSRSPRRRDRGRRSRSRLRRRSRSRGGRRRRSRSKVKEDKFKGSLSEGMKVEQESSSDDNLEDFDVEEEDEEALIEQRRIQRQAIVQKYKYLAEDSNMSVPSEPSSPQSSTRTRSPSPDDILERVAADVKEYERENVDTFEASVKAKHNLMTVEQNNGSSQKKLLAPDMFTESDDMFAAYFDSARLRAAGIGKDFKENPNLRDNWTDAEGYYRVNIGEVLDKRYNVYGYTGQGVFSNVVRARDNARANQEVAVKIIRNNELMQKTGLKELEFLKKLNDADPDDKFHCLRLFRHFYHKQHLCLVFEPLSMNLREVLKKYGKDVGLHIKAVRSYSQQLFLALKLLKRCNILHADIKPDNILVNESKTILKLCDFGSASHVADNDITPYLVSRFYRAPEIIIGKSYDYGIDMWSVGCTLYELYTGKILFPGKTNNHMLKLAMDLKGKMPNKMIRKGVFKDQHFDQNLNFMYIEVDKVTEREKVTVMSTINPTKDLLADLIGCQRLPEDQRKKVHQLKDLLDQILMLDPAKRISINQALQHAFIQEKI
measureName: inhibition

Dear colleague, please send me the reported inhibition for "NC(=O)c1ccc2nc(N[C@H]3CC[C@H](O)CC3)c3nccn3c2c1" when you can.
< 35%

Return reported inhibition. Input compound: "C[C@@H](NC(=O)c1ccc2nc(N[C@H]3CC[C@H](O)CC3)c3nccn3c2c1)c1ccccc1"
< 35%

Determine its reported inhibition: "O=C(NC1(c2ccccc2)CCC1)c1ccc2nc(N[C@H]3CC[C@H](O)CC3)c3nccn3c2c1"
< 35%

====

molecular target: Serine/threonine-protein kinase ATR (Homo sapiens) (UniProt Q13535); test: Inhibition of ATR in human PC3 cell lysates at 10 uM using desthiobiotin-tagged ATP probe AX9989 followed by trypsinization by LC/MS analysis; conditions: PC-3
Sequence (Q13535 whole entry, looked up): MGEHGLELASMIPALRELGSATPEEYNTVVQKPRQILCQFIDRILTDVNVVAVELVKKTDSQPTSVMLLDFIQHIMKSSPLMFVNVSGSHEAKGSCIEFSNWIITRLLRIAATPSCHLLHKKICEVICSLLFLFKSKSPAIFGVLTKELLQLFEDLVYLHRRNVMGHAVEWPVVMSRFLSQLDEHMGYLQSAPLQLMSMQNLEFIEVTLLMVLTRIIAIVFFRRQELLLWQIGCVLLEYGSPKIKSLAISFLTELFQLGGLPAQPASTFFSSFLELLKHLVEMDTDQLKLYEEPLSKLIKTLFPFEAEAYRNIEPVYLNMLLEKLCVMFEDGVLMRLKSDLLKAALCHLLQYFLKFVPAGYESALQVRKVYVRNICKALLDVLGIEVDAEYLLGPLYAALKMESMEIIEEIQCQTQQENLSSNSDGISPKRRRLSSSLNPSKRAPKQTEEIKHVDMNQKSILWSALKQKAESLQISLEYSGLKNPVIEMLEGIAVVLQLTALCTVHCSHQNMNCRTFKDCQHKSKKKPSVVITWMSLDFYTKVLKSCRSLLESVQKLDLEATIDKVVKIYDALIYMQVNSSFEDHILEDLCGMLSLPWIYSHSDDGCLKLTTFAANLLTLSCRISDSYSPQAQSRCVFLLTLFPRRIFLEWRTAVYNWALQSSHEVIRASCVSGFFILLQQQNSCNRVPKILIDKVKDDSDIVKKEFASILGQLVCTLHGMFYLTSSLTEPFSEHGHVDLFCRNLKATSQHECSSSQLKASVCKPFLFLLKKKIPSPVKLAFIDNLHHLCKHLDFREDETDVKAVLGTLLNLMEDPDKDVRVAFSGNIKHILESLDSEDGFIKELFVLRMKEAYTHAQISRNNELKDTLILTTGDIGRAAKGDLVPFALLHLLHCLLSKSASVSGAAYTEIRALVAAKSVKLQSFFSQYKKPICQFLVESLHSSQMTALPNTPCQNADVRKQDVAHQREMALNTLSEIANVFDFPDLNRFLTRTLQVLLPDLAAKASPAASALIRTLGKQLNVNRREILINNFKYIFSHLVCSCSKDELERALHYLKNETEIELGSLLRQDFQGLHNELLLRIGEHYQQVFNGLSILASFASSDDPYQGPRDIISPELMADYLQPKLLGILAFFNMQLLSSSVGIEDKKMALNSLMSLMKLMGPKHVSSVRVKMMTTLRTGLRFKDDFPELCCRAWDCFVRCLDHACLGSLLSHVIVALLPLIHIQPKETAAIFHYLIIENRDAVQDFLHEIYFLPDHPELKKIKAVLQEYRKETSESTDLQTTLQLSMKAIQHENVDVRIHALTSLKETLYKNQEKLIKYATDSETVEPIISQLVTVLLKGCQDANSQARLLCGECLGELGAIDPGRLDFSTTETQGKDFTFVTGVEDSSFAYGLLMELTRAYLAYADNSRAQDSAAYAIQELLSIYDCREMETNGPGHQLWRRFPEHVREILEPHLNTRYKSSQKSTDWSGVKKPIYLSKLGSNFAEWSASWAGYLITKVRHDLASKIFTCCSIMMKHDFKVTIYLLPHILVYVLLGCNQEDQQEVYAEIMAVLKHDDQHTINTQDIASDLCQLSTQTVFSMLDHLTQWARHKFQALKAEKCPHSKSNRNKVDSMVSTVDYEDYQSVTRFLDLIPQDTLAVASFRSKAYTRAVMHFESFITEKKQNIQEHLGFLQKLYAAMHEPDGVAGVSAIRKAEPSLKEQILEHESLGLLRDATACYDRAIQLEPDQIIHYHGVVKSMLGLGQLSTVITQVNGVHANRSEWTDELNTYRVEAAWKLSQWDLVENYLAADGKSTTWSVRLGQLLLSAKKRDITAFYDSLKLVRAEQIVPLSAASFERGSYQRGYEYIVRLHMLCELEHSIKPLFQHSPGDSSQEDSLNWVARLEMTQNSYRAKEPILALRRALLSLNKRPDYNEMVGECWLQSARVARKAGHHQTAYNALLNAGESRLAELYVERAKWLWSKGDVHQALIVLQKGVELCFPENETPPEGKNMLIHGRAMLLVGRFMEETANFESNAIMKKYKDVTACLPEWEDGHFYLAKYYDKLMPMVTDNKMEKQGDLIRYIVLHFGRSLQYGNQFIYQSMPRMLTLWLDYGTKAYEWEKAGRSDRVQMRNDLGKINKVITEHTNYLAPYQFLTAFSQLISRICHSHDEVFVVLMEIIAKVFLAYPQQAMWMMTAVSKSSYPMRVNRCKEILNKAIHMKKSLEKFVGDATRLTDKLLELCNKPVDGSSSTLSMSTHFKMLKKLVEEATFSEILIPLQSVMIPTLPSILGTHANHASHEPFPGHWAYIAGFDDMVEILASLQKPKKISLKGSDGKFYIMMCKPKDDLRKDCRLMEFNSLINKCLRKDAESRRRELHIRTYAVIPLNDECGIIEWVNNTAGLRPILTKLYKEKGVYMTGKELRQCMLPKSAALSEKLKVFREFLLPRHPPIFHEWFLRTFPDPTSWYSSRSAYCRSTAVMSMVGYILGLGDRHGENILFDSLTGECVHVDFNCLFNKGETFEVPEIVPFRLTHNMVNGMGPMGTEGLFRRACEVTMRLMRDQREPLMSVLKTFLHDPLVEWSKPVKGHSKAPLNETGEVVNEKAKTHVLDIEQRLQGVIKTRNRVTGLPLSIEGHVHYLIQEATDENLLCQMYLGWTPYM
measureName: inhibition

CC(C)(NC(=O)c1ccc2nc(N[C@H]3CC[C@H](O)CC3)c3nccn3c2c1)c1ccccc1 : < 35%

Please report the measured inhibition for "CCC[C@@H](NC(=O)c1ccc2nc(N[C@H]3CC[C@H](O)CC3)c3nccn3c2c1)c1ccccc1" tested on Serine/threonine-protein kinase ATR (Homo sapiens) (UniProt Q13535).
< 35%

Report inhibition from Serine/threonine-protein kinase ATR (Homo sapiens) (UniProt Q13535) testing of "O=C(NC1(c2ccc(F)cc2)CC1)c1ccc2nc(N[C@H]3CC[C@H](O)CC3)c3nccn3c2c1"
< 35%

====

biological target: Dual specificity mitogen-activated protein kinase kinase 3 (Homo sapiens); assay: Inhibition of MAP2K3 in human PC3 cell lysates at 10 uM using desthiobiotin-tagged ATP probe AX9989 followed by trypsinization by LC/MS analysis; details: PC-3
The entries below come with measured inhibition values attached.

Observe how each entry below is paired with its result.
O=C(NC1(c2ccccc2)CCC1)c1ccc2nc(N[C@H]3CC[C@H](O)CC3)c3nccn3c2c1 : < 35%
CC[C@@H](NC(=O)c1ccc2nc(N[C@H]3CC[C@H](O)CC3)c3nccn3c2c1)c1ccccc1 : < 35%
C[C@@H](NC(=O)c1ccc2nc(N[C@H]3CC[C@H](O)CC3)c3nccn3c2c1)c1ccccc1 : < 35%

Give the reported inhibition for this compound. "C[C@H](NC(=O)c1ccc2nc(N[C@H]3CC[C@H](O)CC3)c3nccn3c2c1)c1ccccc1"
< 35%

# return recorded inhibition for entry "CC(C)(NC(=O)c1ccc2nc(N[C@H]3CC[C@H](O)CC3)c3nccn3c2c1)c1ccccc1"
< 35%

Look up inhibition of "CCC[C@@H](NC(=O)c1ccc2nc(N[C@H]3CC[C@H](O)CC3)c3nccn3c2c1)c1ccccc1" and report it.
< 35%

Return inhibition (reported value) for this compound: "O=C(O)c1ccc2nc(N[C@H]3CC[C@H](O)CC3)c3nccn3c2c1"
< 35%

Give recorded inhibition. "O=C(NC1(c2ccccc2)CC1)c1ccc2nc(N[C@H]3CC[C@H](O)CC3)c3nccn3c2c1"
< 35%

Supply measured inhibition of "NC(=O)c1ccc2nc(N[C@H]3CC[C@H](O)CC3)c3nccn3c2c1" in your reply.
< 35%

Look up inhibition of "O=C(N[C@H](CO)c1ccccc1)c1ccc2nc(N[C@H]3CC[C@H](O)CC3)c3nccn3c2c1" and report it.
< 35%

Specify inhibition for "O=C(NC1(Cc2ccc(F)cc2)CC1)c1ccc2nc(N[C@H]3CC[C@H](O)CC3)c3nccn3c2c1" and stop.
< 35%

Determine from records and report inhibition for "O=C(NC1(c2ccc(F)cc2)CC1)c1ccc2nc(N[C@H]3CC[C@H](O)CC3)c3nccn3c2c1"
< 35%

====

molecular target: Serine/threonine-protein kinase tousled-like 2 (Homo sapiens); assay: Inhibition of TLK2 in human PC3 cell lysates at 10 uM using desthiobiotin-tagged ATP probe AX9989 followed by trypsinization by LC/MS analysis; conditions: PC-3
measureName: inhibition

Solved cases below.
O=C(N[C@H](CO)c1ccccc1)c1ccc2nc(N[C@H]3CC[C@H](O)CC3)c3nccn3c2c1 : < 35%
O=C(NC1(c2ccccc2)CCC1)c1ccc2nc(N[C@H]3CC[C@H](O)CC3)c3nccn3c2c1 : < 35%

# input for lookup
State its inhibition for this molecule: "CCC[C@@H](NC(=O)c1ccc2nc(N[C@H]3CC[C@H](O)CC3)c3nccn3c2c1)c1ccccc1"
< 35%
